- System: P388
- Assay details: In vivo antileukemic activity against P388 lymphocytic leukemia at a dose of 100 mg/kg administered intraperitoneally expressed as weight change of treated to control animals
- Type: functional, Mus musculus
- Cond: route intraperitoneal
This listing pairs compounds with measured Weight change.
Your answer is read as g, so omit the unit and give the number.

In [3]: df
Out[3]:
                                   compound  numeric_result
0  CC(C)NC(=O)OCC1=C(COC(=O)NC(C)C)C(C)(C)[N+](C)([O-])C1c1ccccc1 (centres undefined)             0.7

Item: CC(C)NC(=O)OCC1=C(COC(=O)NC(C)C)C(c2ccccc2)N(C)C1 (centres undefined) Test system: P388 Read-out: Weight change Value: ?
-2.2

I'm curious: which Weight change was measured for CNC(=O)OCC1=CC[N+](C)([O-])C1COC(=O)NC (centres undefined) tested on P388?
-2.1

Test system P388; read-out Weight change; what value for CC(C)NC(=O)OCC1=C(COC(=O)NC(C)C)C(c2ccccc2)[N+](C)([O-])C1 (centres undefined) ?
-1.5
